Item-by-item account of log10(GI50)
tested on: PC-3; experiment: Growth inhibitory activity against Prostate cancer PC-3 cell line was determined; format: functional; details: Homo sapiens
Assay Metric: log10(GI50) (log10 of the value in µM)

{"Structure As Smiles": "O=C(Oc1cccnc1)c1ccccc1Nc1ccnc(C(F)(F)F)c1", "System Under Test": "PC-3", "log10(GI50)": -0.38}
{"Structure As Smiles": "COc1cccc(OC(=O)c2ccccc2Nc2ccnc(C(F)(F)F)c2)c1", "System Under Test": "PC-3", "log10(GI50)": 0.51}
{"Structure As Smiles": "O=C(Oc1ccc(Cl)cc1Cl)c1ccccc1Nc1ccnc(C(F)(F)F)c1", "System Under Test": "PC-3", "log10(GI50)": 0.92}
{"Structure As Smiles": "O=C(Oc1ccccc1Cl)c1ccccc1Nc1ccnc(C(F)(F)F)c1", "System Under Test": "PC-3", "log10(GI50)": -0.52}
{"Structure As Smiles": "CCOC(=O)CNC(=O)c1ccccc1Nc1ccnc(C(F)(F)F)c1", "System Under Test": "PC-3", "log10(GI50)": 1.34}
{"Structure As Smiles": "O=C(Oc1cccc(Cl)c1)c1ccccc1Nc1ccnc(C(F)(F)F)c1", "System Under Test": "PC-3", "log10(GI50)": 0.87}
{"Structure As Smiles": "O=C(Oc1ccc(Cl)cc1)c1ccccc1Nc1ccnc(C(F)(F)F)c1", "System Under Test": "PC-3", "log10(GI50)": 1.23}
